biological target: ERRα (Homo sapiens, UniProt P11474); assay: Cell-based; conditions: HEK293 co-transfection luciferase
Sequence (P11474 whole entry): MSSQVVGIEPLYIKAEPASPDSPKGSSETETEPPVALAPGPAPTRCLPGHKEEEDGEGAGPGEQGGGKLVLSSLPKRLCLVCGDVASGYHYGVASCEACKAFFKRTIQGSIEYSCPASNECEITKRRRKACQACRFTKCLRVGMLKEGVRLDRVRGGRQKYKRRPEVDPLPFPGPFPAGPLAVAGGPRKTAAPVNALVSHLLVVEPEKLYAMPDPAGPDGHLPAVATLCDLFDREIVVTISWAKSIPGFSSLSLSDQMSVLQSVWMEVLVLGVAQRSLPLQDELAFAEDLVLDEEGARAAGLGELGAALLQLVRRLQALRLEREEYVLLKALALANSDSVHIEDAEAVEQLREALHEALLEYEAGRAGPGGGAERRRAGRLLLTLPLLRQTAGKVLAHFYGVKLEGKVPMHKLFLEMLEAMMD
endpoint-label: ERRα activity (in words)

• O=C(N/N=C/c1ccccc1[N+](=O)[O-])c1ccccc1 = completely inactive
• O=C(NN=Cc1ccccc1O)c1ccccc1 = completely inactive

* * *

biological target: ERRγ (Homo sapiens); assay: Cell-based
endpoint-label: EC50 (nM)

- O=C(N/N=C/c1ccccc1[N+](=O)[O-])c1ccc([N+](=O)[O-])cc1 [Compound 38]: 260
- Cc1ccccc1C(=O)N/N=C/c1ccccc1O [Compound 29]: 254
- O=C(N/N=C/c1ccccc1O)c1ccccc1O [Compound 27]: 1650

[A] Cc1ccc(C(=O)N/N=C/c2ccccc2O)cc1 [Compound 33]
[B] COc1ccc(/C=N/NC(=O)c2ccc(Br)cc2)cc1 [Compound 35]
Prompt line: Recorded EC50 values differ for A and B ; which one is higher? # respond with the chosen item's label
Response line: B
(B: 398 nM, A: 235 nM)

* * *

molecular target: ERRα (Homo sapiens, UniProt P11474); test: Cell-based
pEC50: −log10 of the molar value.
endpoint-label: pEC50

* O=C(N/N=C/c1ccccc1[N+](=O)[O-])c1ccc([N+](=O)[O-])cc1 | 6.19
* Cc1ccc(C(=O)N/N=C/c2ccccc2O)cc1 | 6.32
* Cc1ccccc1C(=O)N/N=C/c1ccccc1O | 6.34
* O=C(N/N=C/c1ccccc1O)c1ccccc1O | 6.42
* COc1ccc(/C=N/NC(=O)c2ccc(Br)cc2)cc1 | 6.27

* * *

molecular target: ERRβ (Homo sapiens, UniProt O95718); experiment: Cell-based co-transfection ERR responsive luciferase reporter assay, ERRβ; details: read-out: ERRβ EC50; agonism, co-transfection luciferase reporter
Sequence (O95718 whole entry, species assumed): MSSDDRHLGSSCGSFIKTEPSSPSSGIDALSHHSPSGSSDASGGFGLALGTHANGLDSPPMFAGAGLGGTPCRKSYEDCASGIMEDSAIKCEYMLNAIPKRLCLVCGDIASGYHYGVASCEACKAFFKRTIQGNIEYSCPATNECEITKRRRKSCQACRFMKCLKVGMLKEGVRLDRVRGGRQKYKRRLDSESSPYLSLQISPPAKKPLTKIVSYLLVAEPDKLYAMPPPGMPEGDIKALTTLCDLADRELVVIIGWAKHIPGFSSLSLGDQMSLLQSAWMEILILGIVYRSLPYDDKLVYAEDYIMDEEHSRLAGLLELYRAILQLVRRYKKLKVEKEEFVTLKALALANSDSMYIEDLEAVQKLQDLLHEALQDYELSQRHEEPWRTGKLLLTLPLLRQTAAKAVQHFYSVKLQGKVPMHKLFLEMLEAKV
endpoint-label: EC50 (nM)
Please give a number only; it is taken to be in nM.

Prompt line: Item CC(C)c1ccc(/C=N/NC(=O)c2ccc(O)cc2)cc1 [GSK4716 (6)] with ERRβ (Homo sapiens, UniProt O95718) - EC50?
Response line: 280

* * *

Biological target: ERRγ (Homo sapiens)
Sequence (P62508 1-458): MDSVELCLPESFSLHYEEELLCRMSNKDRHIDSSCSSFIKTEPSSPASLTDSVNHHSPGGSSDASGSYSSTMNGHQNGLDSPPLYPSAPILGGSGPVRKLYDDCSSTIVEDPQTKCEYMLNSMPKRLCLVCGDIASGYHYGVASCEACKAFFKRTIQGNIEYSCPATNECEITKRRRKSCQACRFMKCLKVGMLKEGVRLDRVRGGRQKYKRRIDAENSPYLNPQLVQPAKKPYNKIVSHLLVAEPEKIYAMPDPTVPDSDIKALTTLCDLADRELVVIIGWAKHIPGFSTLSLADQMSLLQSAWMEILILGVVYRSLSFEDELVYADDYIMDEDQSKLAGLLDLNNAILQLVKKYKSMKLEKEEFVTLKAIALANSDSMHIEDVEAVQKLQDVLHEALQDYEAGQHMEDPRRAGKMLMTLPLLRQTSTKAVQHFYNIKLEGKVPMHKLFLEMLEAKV
Assay: Cell-based
Details: HEK293 co-transfection luciferase
endpoint-label: ERRγ activity (in words)

* O=C(N/N=C/c1ccccc1[N+](=O)[O-])c1ccccc1 | completely inactive
* O=C(NN=Cc1ccccc1O)c1ccccc1 | completely inactive
